This collection of values is drawn from patent US9421209B2.

# assaySystem: P110 δ/Pi3K δ (Homo sapiens)
# runDescription: Fluorescent (HTRF) determination of PI3K enzyme activity, δ isoform
# Type: biochemical
Listing of entries alongside the reported inhibition at 1 µM.

// solved cases for inhibition at 1 µM follow
{"columns": ["molecule", "measurementLabel", "result"],
 "data": [
  ["Nc1ncnc2c1ncn2Cc1oc2ccccc2c(=O)c1-c1ccc(F)cc1", "inhibition at 1 µM", "< 50%"],
  ["CC(c1oc2ccccc2c(=O)c1-c1ccccc1)n1nc(C#CC(C)(C)O)c2c(N)ncnc21 (stereo not shown)", "inhibition at 1 µM", "< 50%"],
  ["CC(c1oc2ccc(F)cc2c(=O)c1-c1ccccc1)n1cnc2c(N)ncnc21 (stereo not shown)", "inhibition at 1 µM", "50 to 100%"],
  ["CC(c1oc2ccccc2c(=O)c1-c1cccc(F)c1)n1cnc2c(N)ncnc21 (stereo not shown)", "inhibition at 1 µM", "50 to 100%"],
  ["Nc1ncnc2c1c(-c1cccnc1)nn2Cc1oc2ccccc2c(=O)c1-c1ccccc1", "inhibition at 1 µM", "< 50%"]
]}

Consider the record given below.
May I ask what inhibition at 1 µM has been recorded for `COc1ccc2oc(Cn3cnc4c(N)ncnc43)c(-c3ccccc3)c(=O)c2c1` ?
< 50%

---

# assaySystem: P110 δ/Pi3K δ (Homo sapiens, UniProt O00329)
# Sequence (O00329 whole entry, canonical isoform): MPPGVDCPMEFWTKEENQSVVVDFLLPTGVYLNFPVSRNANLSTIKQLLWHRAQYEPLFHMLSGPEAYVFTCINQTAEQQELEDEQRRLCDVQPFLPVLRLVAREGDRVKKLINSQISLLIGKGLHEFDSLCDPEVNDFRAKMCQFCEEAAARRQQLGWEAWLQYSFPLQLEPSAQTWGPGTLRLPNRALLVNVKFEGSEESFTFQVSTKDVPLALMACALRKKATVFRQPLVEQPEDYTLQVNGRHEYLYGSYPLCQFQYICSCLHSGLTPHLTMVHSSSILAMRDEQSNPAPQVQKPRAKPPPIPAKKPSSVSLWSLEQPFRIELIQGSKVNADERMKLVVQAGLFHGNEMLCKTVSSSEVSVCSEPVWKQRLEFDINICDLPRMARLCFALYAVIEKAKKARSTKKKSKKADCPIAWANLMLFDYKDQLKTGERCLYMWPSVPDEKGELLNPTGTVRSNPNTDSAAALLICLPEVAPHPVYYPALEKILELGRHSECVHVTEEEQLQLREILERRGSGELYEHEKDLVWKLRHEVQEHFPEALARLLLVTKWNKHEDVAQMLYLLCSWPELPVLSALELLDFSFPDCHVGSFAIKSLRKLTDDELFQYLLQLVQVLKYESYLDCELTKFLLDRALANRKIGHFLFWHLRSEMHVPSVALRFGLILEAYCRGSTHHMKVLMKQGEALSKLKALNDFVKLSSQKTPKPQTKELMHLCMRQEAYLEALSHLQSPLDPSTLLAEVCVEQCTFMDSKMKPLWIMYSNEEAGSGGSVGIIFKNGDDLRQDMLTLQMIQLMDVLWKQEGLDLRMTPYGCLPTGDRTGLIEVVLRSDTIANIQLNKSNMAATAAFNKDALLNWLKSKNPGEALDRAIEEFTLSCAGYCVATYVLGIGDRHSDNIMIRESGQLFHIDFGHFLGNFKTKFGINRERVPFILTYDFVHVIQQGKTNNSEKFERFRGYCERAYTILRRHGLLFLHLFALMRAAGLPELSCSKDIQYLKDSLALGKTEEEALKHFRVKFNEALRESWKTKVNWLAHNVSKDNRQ
# Sequence (P27986 whole entry partner, canonical isoform): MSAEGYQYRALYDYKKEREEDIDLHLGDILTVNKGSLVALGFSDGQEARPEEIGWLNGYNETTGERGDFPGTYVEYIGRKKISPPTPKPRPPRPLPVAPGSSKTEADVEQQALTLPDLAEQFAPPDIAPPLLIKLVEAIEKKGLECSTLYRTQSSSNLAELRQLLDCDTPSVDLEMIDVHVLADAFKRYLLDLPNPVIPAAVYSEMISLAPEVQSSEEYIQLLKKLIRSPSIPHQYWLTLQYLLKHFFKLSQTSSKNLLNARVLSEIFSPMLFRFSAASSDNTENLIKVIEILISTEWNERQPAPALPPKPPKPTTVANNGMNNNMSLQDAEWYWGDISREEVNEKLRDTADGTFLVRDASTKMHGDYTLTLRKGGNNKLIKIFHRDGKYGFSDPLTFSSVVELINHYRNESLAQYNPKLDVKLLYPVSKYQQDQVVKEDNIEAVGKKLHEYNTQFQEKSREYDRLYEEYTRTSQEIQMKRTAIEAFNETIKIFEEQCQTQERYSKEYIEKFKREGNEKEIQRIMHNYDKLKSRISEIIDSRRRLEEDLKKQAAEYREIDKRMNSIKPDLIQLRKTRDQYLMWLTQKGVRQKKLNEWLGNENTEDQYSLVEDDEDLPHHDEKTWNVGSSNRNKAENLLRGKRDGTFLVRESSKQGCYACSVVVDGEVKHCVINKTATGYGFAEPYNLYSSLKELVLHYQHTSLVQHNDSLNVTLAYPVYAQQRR
# runDescription: Fluorescent (HTRF) determination of PI3K enzyme activity, δ isoform
# Type: biochemical
# Design: dose or concentration left out as unconfirmed
# Description: Assay 1: Fluorescent determination of PI3Kinase Kinase enzyme activity Phosphoinositide 3 kinases (PI3K) belong to a class of lipid kinases that play a critical role in the regulation of several key cellular processes. […] The homogenous time resolved fluorescence (HTRF) assay allows detection of 3,4,5-triphosphate (PIP3) formed as a result of phosphorylation of phosphotidylinositol 4,5-biphosphate (PIP2) by PI3K isoforms such as α, β, γ or δ. […]
Listing of entries alongside the reported inhibition.

{"columns": ["molecule", "inhibition"],
 "data": [
  ["CC(c1oc2ccccc2c(=O)c1-c1cccc(F)c1)n1nc(-c2cccc(OC(F)(F)F)c2)c2c(N)ncnc21 (stereo not shown)", "50 to 100%"],
  ["CC(c1oc2ccccc2c(=O)c1-c1cccc(F)c1)n1nc(-c2csc(C=O)c2)c2c(N)ncnc21 (stereo not shown)", "50 to 100%"],
  ["COc1ccc2cc(-c3nn(C(C)c4oc5ccccc5c(=O)c4-c4cccc(F)c4)c4ncnc(N)c34)ccc2c1 (stereo not shown)", "< 50%"]
]}

Consider the record given below.
May I ask what inhibition has been recorded for Cc1c2ccc(-c3nn(C(C)c4oc5ccccc5c(=O)c4-c4cccc(F)c4)c4ncnc(N)c34)cc2nn1C (stereo not shown) ?
< 50%

---

# assaySystem: P110 δ/Pi3K δ (Homo sapiens, UniProt O00329)
# runDescription: Fluorescent (HTRF) determination of PI3K enzyme activity, δ isoform
# Type: biochemical
# Set-up: dose or concentration left out as unconfirmed
# Excerpt: Assay 1: Fluorescent determination of PI3Kinase Kinase enzyme activity Phosphoinositide 3 kinases (PI3K) belong to a class of lipid kinases that play a critical role in the regulation of several key cellular processes. […] The homogenous time resolved fluorescence (HTRF) assay allows detection of 3,4,5-triphosphate (PIP3) formed as a result of phosphorylation of phosphotidylinositol 4,5-biphosphate (PIP2) by PI3K isoforms such as α, β, γ or δ. […]
Listing of entries alongside the reported inhibition.

// solved cases for inhibition follow
{"columns": ["compound", "assaySystem", "inhibition"],
 "data": [
  ["CC(c1oc2ccccc2c(=O)c1-c1cccc(F)c1)n1nc(-c2ccc(OC(F)(F)F)cc2)c2c(N)ncnc21 (stereo not shown)", "P110 δ/Pi3K δ (Homo sapiens, UniProt O00329)", "< 50%"],
  ["CC(C)Oc1ccc(-c2nn(C(C)c3oc4ccccc4c(=O)c3-c3cccc(F)c3)c3ncnc(N)c23)cc1 (stereo not shown)", "P110 δ/Pi3K δ (Homo sapiens, UniProt O00329)", "50 to 100%"],
  ["CCOc1ccc(-c2nn(C(C)c3oc4ccccc4c(=O)c3-c3cccc(F)c3)c3ncnc(N)c23)cc1F (stereo not shown)", "P110 δ/Pi3K δ (Homo sapiens, UniProt O00329)", "< 50%"],
  ["CCOc1ccc(-c2nn(C(C)c3oc4ccccc4c(=O)c3-c3cccc(F)c3)c3ncnc(N)c23)cc1 (stereo not shown)", "P110 δ/Pi3K δ (Homo sapiens, UniProt O00329)", "< 50%"],
  ["CC(c1oc2ccccc2c(=O)c1-c1cccc(F)c1)n1nc(C#CCO)c2c(N)ncnc21 (stereo not shown)", "P110 δ/Pi3K δ (Homo sapiens, UniProt O00329)", "50 to 100%"]
]}

May I ask what inhibition has been recorded for Cc1nn(C)c2cc(-c3nn(C(C)c4oc5ccccc5c(=O)c4-c4cccc(F)c4)c4ncnc(N)c34)ccc12 (stereo not shown) ?
50 to 100%

May I ask what inhibition has been recorded for CC(c1oc2ccccc2c(=O)c1-c1cccc(F)c1)n1nc(-c2ccc3c(c2)CCO3)c2c(N)ncnc21 (stereo not shown) ?
50 to 100%
